# Method Description: qHTS assay to identify small molecule antagonists of the retinoid acid receptor (RAR) signaling pathway - cell viability counter screen (AID 1159551); also: % is scaled to controls: 0 for no effect and ±100 for the full control effect; nearly all actives have a fitted effect of over 35% in size
# Experimental Conditions: C3RL4 cells viability, ATP luminescence (CellTiter-Glo), 6 h; series mostly up to 92.4 µM
Records with an inconclusive call do not appear. Activity calls are given as the source filed them. Calls follow the shape of the dose curve; as a rule, active = well fitted cell-killing curve with a large enough effect in the repeat runs; inconclusive = weak or mixed curves, or effect the other way; inactive = flat fitted curve, though single readings scatter.
Parameter: activity change, negative = cytotoxicity

compound="NC(=O)CCCCC1CCSS1 (configuration not stated)" parameter="activity change, negative = cytotoxicity" endpoint_result=inactive
compound=CO[Si](CCCNCCC[Si](OC)(OC)OC)(OC)OC parameter="activity change, negative = cytotoxicity" endpoint_result=inactive
compound="C1C2OC2C2C1C1CC2C2OC12 (configuration not stated)" parameter="activity change, negative = cytotoxicity" endpoint_result=inactive
compound="C#CC(C)(O)CC(C)C (configuration not stated)" parameter="activity change, negative = cytotoxicity" endpoint_result=inactive
compound=NCCN1CCNC1=O parameter="activity change, negative = cytotoxicity" endpoint_result=inactive
compound=O=C(O)/C=C/c1ccc(/C=C/C(=O)O)cc1 parameter="activity change, negative = cytotoxicity" endpoint_result=inactive
compound=CC(C)CCCCCCN parameter="activity change, negative = cytotoxicity" endpoint_result=inactive
compound=O=C(O)c1ccccc1-c1ccc(C(F)(F)F)cc1 parameter="activity change, negative = cytotoxicity" endpoint_result=inactive
compound=CNC(=O)c1c(I)c(NC(=O)CCCCC(=O)Nc2c(I)c(C(=O)O)c(I)c(C(=O)NC)c2I)c(I)c(C(=O)O)c1I parameter="activity change, negative = cytotoxicity" endpoint_result=inactive
compound=CCn1cc(C(=O)O)c(=O)c2cc(F)c(N3CCN(C)CC3)cc21 parameter="activity change, negative = cytotoxicity" endpoint_result="1.65% [at 19 µM] (inactive)"
compound="CC1=CC(C)C(C=O)C(C)C1 (configuration not stated)" parameter="activity change, negative = cytotoxicity" endpoint_result=inactive
compound="CCN1CCCC(OC(=O)C(c2ccccc2)c2ccccc2)C1 (configuration not stated)" parameter="activity change, negative = cytotoxicity" endpoint_result=inactive
compound=CCCCC=O parameter="activity change, negative = cytotoxicity" endpoint_result=inactive
compound=CC(C)(C)N(CCO)CCO parameter="activity change, negative = cytotoxicity" endpoint_result=inactive
compound=CN(C)CCn1nnnc1SCC1=C(C(=O)O)N2C(=O)[C@@H](NC(=O)Cc3csc(N)n3)[C@H]2SC1 parameter="activity change, negative = cytotoxicity" endpoint_result=inactive
compound=[O-][N+](=Nc1ccccc1)c1ccccc1 parameter="activity change, negative = cytotoxicity" endpoint_result=inactive
compound=CC(C)(C)OC(=O)N1C[C@@H](F)C[C@H]1C(=O)O parameter="activity change, negative = cytotoxicity" endpoint_result=inactive
compound=C=CC(=O)N1CCOCC1 parameter="activity change, negative = cytotoxicity" endpoint_result=inactive
compound=CC1=CC(=O)CCC1 parameter="activity change, negative = cytotoxicity" endpoint_result=inactive
compound="CC(C)CCCC(C)CCCC(C)CCCCC(C)CCCC(C)CCCC(C)C (configuration not stated)" parameter="activity change, negative = cytotoxicity" endpoint_result=inactive
compound=CCCOc1ccccc1-c1nc2n[nH]nc2c(=O)[nH]1 parameter="activity change, negative = cytotoxicity" endpoint_result=inactive
compound=OCC(CO)(CO)COCC(CO)(CO)CO parameter="activity change, negative = cytotoxicity" endpoint_result=inactive
compound=C=C(C)C(=O)OCCCCCCCCCCCCCCCCCC parameter="activity change, negative = cytotoxicity" endpoint_result="-0.339% [at 19 µM] (inactive)"
compound=Cc1ncc(CSSCc2cnc(C)c(O)c2CO)c(CO)c1O parameter="activity change, negative = cytotoxicity" endpoint_result=inactive
compound=NC(=O)c1ncn([C@@H]2O[C@H](CO)[C@@H](O)[C@H]2O)c1O parameter="activity change, negative = cytotoxicity" endpoint_result=inactive
compound=Cc1c(C)n(CCN(C)C)c2ccc(C(=O)OCCN(C)C)cc12 parameter="activity change, negative = cytotoxicity" endpoint_result=inactive
compound=CCCCCCCCCCCCCCCCCC(=O)OCCCCCCCCCCCCCC(C)C parameter="activity change, negative = cytotoxicity" endpoint_result=inactive
